# maps each entry to its EC50
test system: Calu-3 cells; experiment: LDH release assay on Calu-3 cells; type: cell-based; settings: Homo sapiens; Calu-3, concentration causing 50% LDH release, mean ± SD
Please respond with the number in µM and leave the unit unwritten.

Answered examples (2):
| COMPOUND | UNITS_OF_MEASURE | EC50 |
| --- | --- | --- |
| CCCCCCCCCCCCCCOC(=O)C(CC(C)C)[N+](C)(C)Cc1ccccc1 (stereo not drawn) [C14 LEU BENZ] | µM | 14 |
| CCCCCCCCCCCCOC(=O)C(CC(C)C)[N+](C)(C)Cc1ccccc1 (stereo not drawn) [C12 LEU BENZ] | µM | 19 |

// switching to the query compound
System Calu-3 cells. Read-out EC50. Item CCCCCCCCCCOC(=O)C(CC(C)C)[N+](C)(C)Cc1ccccc1 (stereo not drawn) [C10 LEU BENZ] . Report value.
187

====

system: Caco-2 cells; experiment: MTS cytotoxicity assay on Caco-2 cells; type: cell-based; conditions: Homo sapiens; Caco-2, concentration causing 50% reduction of viable cells, mean ± SD
METRIC_NAME: EC50
Could you write the number and then its unit?

Answered examples (2):
| COMPOUND | EC50 |
| --- | --- |
| CCCCCCCCCCOC(=O)C(CC(C)C)[N+](C)(C)Cc1ccccc1 (stereo not drawn) | 160 µM |
| CCCCCCCCCCCCOC(=O)C(CC(C)C)[N+](C)(C)Cc1ccccc1 (stereo not drawn) | 16 µM |

System Caco-2 cells. Read-out EC50. Item CCCCCCCCCCCCCCOC(=O)C(CC(C)C)[N+](C)(C)Cc1ccccc1 (stereo not drawn) . Report value.
13 µM
